B1: TPR t1 (parent)
chain: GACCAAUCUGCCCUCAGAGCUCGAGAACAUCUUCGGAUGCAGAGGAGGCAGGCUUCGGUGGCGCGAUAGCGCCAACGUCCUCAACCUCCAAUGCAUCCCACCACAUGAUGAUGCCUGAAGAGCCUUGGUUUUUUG

- Variants of: B1
- test_details: polymerase ribozyme fitness, log enrichment relative to wild type (log ratio); higher = more active; in vitro selection for triplet polymerase activity
readout_name: polymerase ribozyme fitness (log ratio)

var: U9G A26U
readout_name: polymerase ribozyme fitness (log ratio)
reading: -2.33

var: A26G G42C
readout_name: polymerase ribozyme fitness (log ratio)
reading: -4.99

var: C12U G47C C97G G120C
readout_name: polymerase ribozyme fitness (log ratio)
reading: -3.35

var: G44C G63U
readout_name: polymerase ribozyme fitness (log ratio)
reading: -1.98

var: G51A C70G
readout_name: polymerase ribozyme fitness (log ratio)
reading: -6.9

var: C4U G45U
readout_name: polymerase ribozyme fitness (log ratio)
reading: -1.35

var: C12G U14C U59G C73G
readout_name: polymerase ribozyme fitness (log ratio)
reading: -2.57

var: A46G A90C C99U U106C
readout_name: polymerase ribozyme fitness (log ratio)
reading: -4.81

var: G10C A41C G71C G122A
readout_name: polymerase ribozyme fitness (log ratio)
reading: -2.21

var: G39U A66U A119G
readout_name: polymerase ribozyme fitness (log ratio)
reading: -0.493

var: C31A U32C C123G
readout_name: polymerase ribozyme fitness (log ratio)
reading: -3.17

var: C86U A100U
readout_name: polymerase ribozyme fitness (log ratio)
reading: -0.74

var: C72U U78G
readout_name: polymerase ribozyme fitness (log ratio)
reading: -1.7

var: G110A G113U
readout_name: polymerase ribozyme fitness (log ratio)
reading: -5.23

var: C53U U87A C97A
readout_name: polymerase ribozyme fitness (log ratio)
reading: -5.45

var: C12U U55G U59C U133A
readout_name: polymerase ribozyme fitness (log ratio)
reading: -0.128

var: A16G G71C C124A U130A
readout_name: polymerase ribozyme fitness (log ratio)
reading: 0.62

var: C8A G17A U54A G71U C94A
readout_name: polymerase ribozyme fitness (log ratio)
reading: -4.99

var: C4G A41U A46C U87G A91U C115A G135U
readout_name: polymerase ribozyme fitness (log ratio)
reading: -4.36

var: A43C G93U
readout_name: polymerase ribozyme fitness (log ratio)
reading: -2.59

var: C97A C123G
readout_name: polymerase ribozyme fitness (log ratio)
reading: -3.19

var: C11G C40U C53U U87A A90U U112A G127C
readout_name: polymerase ribozyme fitness (log ratio)
reading: -2.43

var: C13U U14G A16U G93U G120C
readout_name: polymerase ribozyme fitness (log ratio)
reading: -3.43

var: U96G C114A
readout_name: polymerase ribozyme fitness (log ratio)
reading: 0.0255

var: U7C C97U C114A
readout_name: polymerase ribozyme fitness (log ratio)
reading: -1.45

var: C8G C79G G117U
readout_name: polymerase ribozyme fitness (log ratio)
reading: -1.37

var: A5U A37U U55A C123A
readout_name: polymerase ribozyme fitness (log ratio)
reading: 0.562

var: C11A G17U
readout_name: polymerase ribozyme fitness (log ratio)
reading: -3.57

var: C49A C115G
readout_name: polymerase ribozyme fitness (log ratio)
reading: -1.85

var: C86U C94A U106G
readout_name: polymerase ribozyme fitness (log ratio)
reading: -3.23

var: G44C U112C
readout_name: polymerase ribozyme fitness (log ratio)
reading: 0.766

var: C8A C53G
readout_name: polymerase ribozyme fitness (log ratio)
reading: -0.744

var: C56U G57U G69U C114U C115A
readout_name: polymerase ribozyme fitness (log ratio)
reading: -4.53

var: C4G C8A C80U C115A G120A U125A
readout_name: polymerase ribozyme fitness (log ratio)
reading: -2.71

var: C8A A50U G52A
readout_name: polymerase ribozyme fitness (log ratio)
reading: -2.23

var: C73U G113A G117A
readout_name: polymerase ribozyme fitness (log ratio)
reading: -6.9

var: G39U C115U U131A
readout_name: polymerase ribozyme fitness (log ratio)
reading: -2.02

var: C101A G117C
readout_name: polymerase ribozyme fitness (log ratio)
reading: -5.15

var: C4G C11U C13U G47U C72G
readout_name: polymerase ribozyme fitness (log ratio)
reading: -5.03

var: C8U G47C G57A U92C
readout_name: polymerase ribozyme fitness (log ratio)
reading: -4.38

var: A27U U54A
readout_name: polymerase ribozyme fitness (log ratio)
reading: -2.8

var: G39A U96C
readout_name: polymerase ribozyme fitness (log ratio)
reading: -0.886
